Ki: recorded values
- test.system: Thymidylate synthase (Lactobacillus casei)
- Sequence (P00469 whole entry): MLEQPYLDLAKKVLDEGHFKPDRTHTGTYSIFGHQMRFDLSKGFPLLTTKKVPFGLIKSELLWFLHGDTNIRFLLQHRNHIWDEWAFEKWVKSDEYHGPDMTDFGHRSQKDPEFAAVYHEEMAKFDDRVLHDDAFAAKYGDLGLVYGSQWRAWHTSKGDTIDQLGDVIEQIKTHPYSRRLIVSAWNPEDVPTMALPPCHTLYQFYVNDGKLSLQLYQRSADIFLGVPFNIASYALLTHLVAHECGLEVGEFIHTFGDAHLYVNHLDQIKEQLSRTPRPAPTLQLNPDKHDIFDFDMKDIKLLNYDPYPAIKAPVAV
The reply should be a number in µM, with the unit left off.

Worked cases, answers included:
Cc1cccc2c1C(=O)N(c1cccc(O)c1)C2=O : 93
CN1C(=O)c2cccc(CNc3ccc(S(=O)(=O)O)cc3)c2C1=O : 33
Cc1cccc2c1C(=O)N(c1ccc(-n3ccnc3)cc1)C2=O : 34

Problem: Consider the compound `Cc1cccc2c1C(=O)N(CCc1cccs1)C2=O` and give its measured Ki.
Solution: 44

Problem: Entry under review: `CN1C(=O)c2cccc(CBr)c2C1=O` . Reported Ki?
Solution: 95

Problem: Endpoint output: Ki of `CCOC(=O)c1ccc(NCc2cccc3c2C(=O)N(C)C3=O)cc1` . Value?
Solution: 56

Problem: Query: Ki; subject: `Cc1cccc2c1C(=O)N(c1ccnc(Cl)c1)C2=O`
Solution: 23

Problem: What Ki value was documented for this compound, `Cc1cccc2c1C(=O)N(c1cc(C(=O)O)cc(C(=O)O)c1)C2=O` ?
Solution: 20

Problem: Query: Ki; subject: `CN1C(=O)c2cccc(CNc3ccc([N+](=O)[O-])c4ccccc34)c2C1=O`
Solution: 10

Problem: # input compound: `CC(=O)c1ccc(N2C(=O)c3cccc(C)c3C2=O)cc1` ; wanted: its Ki
Solution: 6

Problem: Item `Cc1cccc2c1C(=O)N(c1cc(-c3ccccc3)ccc1O)C2=O` has what recorded Ki?
Solution: 3

All figures here come from ChEMBL document CHEMBL1811787.
